Tested on: MT-4 cells
method_notes: Cytotoxicity test in MT-4 cells (MTT method)
Type: cell-based
condition_label: human
Protocol: In order to look into the HIV-1 inhibition effects of the compound of the present invention, an in vitro test for HIV-1 inhibition effects was carried out as follows according to a known method (H. Tanaka et al., J. Med. Chem., 1991, 34, 349). MT-4 cells were used as host cells, and the degree of the compound of the present invention inhibiting the cytotoxicity of the virus-infected MT-4 cells was investigated. […]
Please provide measured CC60 (μM) ** : concentration at 50% cell damage with respect to MT-4 cells for the entries that follow.
Express your answer in µM, writing the number without its unit.

**Q:** Reported CC60 (μM) ** : concentration at 50% cell damage with respect to MT-4 cells, compound `Cc1nc2c(c(C)c(C)n2Cc2cc[nH]n2)c(-c2ccc(Cl)cc2)c1[C@H](OC(C)(C)C)C(=O)O` : ____
**A:** 19.33

**Q:** Next entry: `Cc1nc2c(c(C)c(C)n2Cc2cccnc2F)c(-c2ccc(Cl)cc2)c1[C@H](OC(C)(C)C)C(=O)O`
**A:** 17.14

**Q:** Also check `Cc1nc2c(c(C)c(C)n2C)c(-c2ccc3c(c2Cl)CCCO3)c1[C@H](OC(C)(C)C)C(=O)O`
**A:** 25.1

**Q:** Now consider `Cc1nc2c(c(C)c(C)n2Cc2ccn(C)n2)c(-c2ccc(Cl)cc2)c1[C@H](OC(C)(C)C)C(=O)O` and answer again.
**A:** 25.09

**Q:** How about `Cc1nc2c(c(C)c(C)n2CC2CCCC2)c(-c2ccc(Cl)cc2)c1[C@H](OC(C)(C)C)C(=O)O` ?
**A:** 15.3

**Q:** // same read-out, input: `Cc1nc2c(c(C)c(C)n2Cc2cccc(C#N)c2)c(-c2ccc(Cl)cc2)c1[C@H](OC(C)(C)C)C(=O)O`
**A:** 9.43
